system: CQ-sensitive (D6) strain of P. falciparum; format: cell-based; details: S strain (D6); VOA/QHS ratio 30:1; read-out: IC50 of each drug in combination VOA (3.0 μM) QHS (0.1 μM)
pIC50: −log10 of the molar value.
observed.property: pIC50

C[C@@H]1CC[C@H]2[C@@H](C)C(=O)O[C@@H]3O[C@@]4(C)CC[C@@H]1[C@]32OO4 [QHS, qinghaosu, reference compound] :: 8.01

---

tested on: CQ-sensitive (D6) strain of P. falciparum; assay type: cell-based; conditions: Plasmodium falciparum, D6, read-out: IC50 (10^−7 M) S, chloroquine-sensitive strain of P. falciparum, in vitro; Table V
observed.property: IC50 (nM)

CC=C1CN(C)C2Cc3c([nH]c4ccccc34)C(c3cc4[nH]c5c(c4cc3OC)CCN3CC4CC(CC)C3C5(C(=O)OC)C4)CC1C2C(=O)OC (stereo not shown) :: 240

---

tested on: CQ-sensitive (D6) strain of P. falciparum; format: cell-based; details: Plasmodium falciparum, D6, read-out: IC50 of each drug in combination VOA (2.0 μM) CQ (0.2 μM), S strain (D6); VOA/CQ ratio 10:1
pIC50: −log10 of the molar value.
observed.property: pIC50

CC=C1CN(C)C2Cc3c([nH]c4ccccc34)C(c3cc4[nH]c5c(c4cc3OC)CCN3CC4CC(CC)C3C5(C(=O)OC)C4)CC1C2C(=O)OC (stereo not shown) :: 6.94

---

tested on: CQ-sensitive (D6) strain of P. falciparum; format: cell-based; conditions: S strain (D6); VOA/QHS ratio 10:1; read-out: IC50 of each drug in combination VOA (2.0 μM) QHS (0.2 μM)
observed.property: IC50 (nM)

C[C@@H]1CC[C@H]2[C@@H](C)C(=O)O[C@@H]3O[C@@]4(C)CC[C@@H]1[C@]32OO4 [QHS, qinghaosu, reference compound] :: 14.6

---

test system: CQ-sensitive (D6) strain of P. falciparum; type: cell-based; conditions: Plasmodium falciparum, D6, read-out: IC50 of each drug in combination VOA (3.0 μM) QHS (0.1 μM), S strain (D6); VOA/QHS ratio 30:1
pIC50: −log10 of the molar value.
observed.property: pIC50

CC=C1CN(C)C2Cc3c([nH]c4ccccc34)C(c3cc4[nH]c5c(c4cc3OC)CCN3CC4CC(CC)C3C5(C(=O)OC)C4)CC1C2C(=O)OC (stereo not shown) :: 6.62

---

system: CQ-sensitive (D6) strain of P. falciparum; type: cell-based; conditions: Plasmodium falciparum, D6, read-out: IC50 of each drug in combination VOA (2.0 μM) CQ (0.2 μM)
pIC50: −log10 of the molar value.
observed.property: pIC50

CCN(CC)CCCC(C)Nc1ccnc2cc(Cl)ccc12 (stereo not shown) [CQ, chloroquine, reference compound] :: 7.87

---

system: CQ-sensitive (D6) strain of P. falciparum; assay type: cell-based; conditions: Plasmodium falciparum, D6, read-out: IC50 of each drug in combination VOA (2.0 μM) QHS (0.2 μM), S strain (D6); VOA/QHS ratio 10:1
pIC50: −log10 of the molar value.
observed.property: pIC50

CC=C1CN(C)C2Cc3c([nH]c4ccccc34)C(c3cc4[nH]c5c(c4cc3OC)CCN3CC4CC(CC)C3C5(C(=O)OC)C4)CC1C2C(=O)OC (stereo not shown) :: 6.94
